Tested on: MCF7 breast
Assay: NCI tumour cell line growth inhibition, 48 h
TGI reference

>>> measurement("CC(C)OP(=O)(OC(C)C)c1ncc(-c2ccc(C(F)(F)F)cc2)c(NC2CCCCCC2)n1")
"> 10 µM"
>>> measurement("COC(=O)Cc1c(-c2[nH]c3ccccc3c2CC(=O)OC)[nH]c2ccccc12")
"> 100 µM"
>>> measurement("C#CCCCCC#Cc1ccccc1C(=O)C=[N+]=[N-]")
"> 100 µM"
>>> measurement("COc1ccc(NC(=S)Nc2ccccc2)cc1")
"> 100 µM"
>>> measurement("COc1ccc(C(=O)c2cc(OC)c(OC)c(OC)c2)cc1OC(=O)C(Cl)(Cl)Cl")
"> 100 µM"

Short answer on MCF7 breast for COC(=O)c1c(C)c2n(c1C)C(=O)C(c1ccccc1)=C2 , TGI: > 100 µM
